test system: Hs-578T; assay: NCI tumour cell line growth inhibition, 48 h
Activity calls are given as the source filed them. No stated cut-off is given here; in the data, active = GI50 up to about 1.1 µM and inactive = higher.
Mark one answer only. Choices: active, inactive

Q: Identify the outcome logged in this assay for the molecule shown: O/N=C(\CC(O)(C(F)(F)F)C(F)(F)F)c1cccc(Cl)c1
Ans: inactive

Q: Can you look up the reported call for CCOC(=O)Cn1nnc2cc(Nc3nc4ccccc4nc3C(=O)OCC)ccc21 for me?
Ans: inactive

Q: Status in this test for Cc1nc(-c2ccccc2)c(C)n2c1nc1ccccc12 ?
Ans: inactive

Q: What did the test return for C/C(=N\Nc1nc2ccccc2[nH]1)c1ncccn1 ?
Ans: inactive

Q: Field: outcome | Entry: Cc1cc(CC(O)(C(F)(F)F)C(F)(F)F)cc(CC(O)(C(F)(F)F)C(F)(F)F)n1
Ans: inactive

Q: Hey, what did the test say about Cn1ncc2[nH]cnc2c1=S ?
Ans: inactive

Q: What call does the record list for COC(=O)c1cc(C)ccc1C1CN=NC12Cc1cccc(C)c1C2=O (stereo unspecified) ?
Ans: inactive

Q: Tell me the assay call for CCOc1ccc(NCc2cc(OC)c(OC)c(OC)c2)cc1 please.
Ans: active

Q: Hey, what did the test say about COc1ccc(-c2nc(-c3ccc(OC)cc3)n(-c3ccccc3)n2)cc1 ?
Ans: inactive

Q: Recorded test outcome, item C#CC[C@@H]1C(=O)N(Cc2ccc(OC)cc2)[C@@H](C(C)C)C(=O)N1Cc1ccc(OC)cc1
Ans: inactive

Q: # lookup: test call for Cc1cc2c3c([nH]c2c2ccnc(C)c12)CCCC3
Ans: inactive

----------
test system: CAKI-1; assay: NCI tumour cell line growth inhibition, 48 h
Active and inactive are the calls of the source. Cut-off read from the data, not from the text of the source: active = GI50 up to about 1.1 µM and inactive = higher.
Kindly supply the reported GI50 values for the records listed here.

Noted for COc1ccc(C[C@@H]2CN(C(=O)c3ccccc3)[C@H](Cc3ccc(O)cc3)CN2C(=O)c2ccccc2)cc1Br : its GI50 reads > 100 µM (inactive)

GI50 in this record for O=C1C(=O)C(Br)(Br)C(Br)=C1Br : 18.4 µM (inactive)

GI50 recorded for this compound, CC(=O)OC1C[C@@H](C)C2(C[C@H](O)c3ccoc3)C(=O)OC[C@]13C2CCC(O)C31CO1 (stereo not given in full) , is > 100 µM (inactive)

Input Cc1cc(CC(O)(C(F)(F)F)C(F)(F)F)cc(CC(O)(C(F)(F)F)C(F)(F)F)n1 . Output GI50: > 100 µM (inactive)

Note to self: GI50 recorded for CC(=O)NCCSC(=O)c1ccccc1 was 0.0226 µM (active)

----------
system: SF-268; assay: NCI tumour cell line growth inhibition, 48 h
Activity calls are given as the source filed them. Rule as the data show it: active = GI50 up to about 1.1 µM and inactive = higher. Positions of bridges follow the written chain, without caps; N, C: chain ends. Residues, ends and D or L forms follow the SMILES beside them.
Parameter call: string, one of active, inactive

Q: State the result this test recorded for O=C1CSC2(CC(/C=C/c3ccccc3O)=NN2c2cccc(S(=O)(=O)O)c2)N1c1nc2ccccc2s1 (configuration not stated) .
Ans: inactive

Q: Per the assay record, what outcome was assigned to COc1cc(OC)c2c(c1)C(=O)C(CC(C)O)=CC2=O (configuration not stated) ?
Ans: inactive

Q: Record lookup: outcome of this test for Cc1nn(C(=O)Cc2ccccc2)c2c1C(c1ccc(Cl)cc1)SC(=N)N2 (configuration not stated) ?
Ans: inactive

Q: Hi, do you know how Nc1nc(O)c(Br)c(-c2cccc([N+](=O)[O-])c2)n1 came out in this test?
Ans: inactive

Q: Assay outcome for CCN(CCCl)c1cc(CN(C)C)cc(NC(=O)C23CCC(C(=O)Nc4cc(CN(C)C)cc(N(CC)CCCl)c4)(CC2)CC3)c1 : what was it?
Ans: active

Q: For CC(C)(C)[Si](C)(C)OCC1OC(n2ccc(=O)[nH]c2=O)C(O[Si](C)(C)C(C)(C)C)[C@@]12O[C@H]2C(N)=O (some centres not stated) , what call appears in the results of this test?
Ans: inactive

Q: Please let me know the test result on file for Fc1ccc(N2C(=S)SC(=N\c3ccccc3)/C2=N/c2ccccc2)cc1 .
Ans: inactive

Q: Lab log entry: CC(C)(C)OC(=O)NCC(=O)NC1C/C(=N\O)c2sccc21 (configuration not stated) — outcome as called in the assay?
Ans: inactive

Q: # fetch the recorded call for CCOC(=S)SSSC(=S)OCC here
Ans: inactive

Q: Tell me the assay call for C/C=C1\CN2CCc3c([nH]c4ccccc34)C2C=C1CCO (configuration not stated) please.
Ans: inactive

Q: Please indicate how the test categorized C=C1C(=O)OC2CC(C)C(C(CC(C)=O)OC(C)=O)=CCC12 (configuration not stated) .
Ans: inactive

Q: Assay result, entry O=C1/C(=C/c2ccc(O)cc2)CCC1CNc1ccccc1 (configuration not stated) — outcome?
Ans: inactive

Q: Can you look up the reported call for CC1=CC(c2ccccc2)OP1(=O)c1ccccc1 (configuration not stated) for me?
Ans: inactive

Q: Please let me know the test result on file for CCOC(=O)Cc1ccc2c(c1O)C(=O)c1c(ccc(CC(=O)OCC)c1O)C2=O .
Ans: inactive

Q: // param item: COc1cc2c[n+](C)c3c4ccccc4ccc3c2cc1OC ; yields the recorded call
Ans: active

Q: Recorded call for COC(=O)C1CCC(=O)NCCCCC(NC(=O)C(N)CC(=O)O)C(=O)N1 (stereo not drawn) (H-Asp-Lys-Glu-OMe; lactam 2-3; configuration not given here) ?
Ans: inactive

Q: Assay outcome for CCSc1nc(-c2cccs2)nc2ccc(I)cc12 : what was it?
Ans: inactive

Q: Fill in: this test's call for CNC1(C(=O)O)CC1 is ___
Ans: inactive

Q: Could you please tell me the result logged for CCO/C([O-])=C(\C(=O)c1ccccc1)[n+]1c(C)n(C)c2ccccc21 in this assay?
Ans: inactive

Q: What was the test verdict on COc1cc(NCc2ccc3nc(OC)c(OC)nc3c2)cc(OC)c1OC ?
Ans: inactive

Q: # fetch the recorded call for O=c1[nH]c2ccc(C(F)(F)F)cc2nc1C(F)(F)F here
Ans: inactive

Q: What did the test return for O=C(/C=C/c1ccco1)CC(=O)/C=C/c1ccco1 ?
Ans: inactive
